# Protocol Summary: BSK_CASM3C_Proliferation: Cell Proliferation Assessment in the BioMAP Diversity Plus: CASM3C Assay (AID 2283047);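 also: sulforhodamine B total protein stain as relative cell number at 560 nm; sub-confluent cells exposed 48 h before staining; fitted both ways against DMSO so gain or loss of cell number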
# Assay Setup: primary human coronary artery smooth muscle cells
Calls of active or inactive are those of the source. The calls were made as follows: active = hit-call score of the fitted dose curve at least 0.9, where 1 is the maximum; inactive = score below 0.9.
Labels: 1 (yes) for active, 0 (no) for inactive

INSERT INTO assay_data (compound, group_label) VALUES
  ('CCCCOC(=O)c1ccccc1C(=O)O', '0 (no)'),
  ('CSc1nnc(C(C)(C)C)c(=O)n1N', '0 (no)'),
  ('CN1COCN(Cc2cnc(Cl)s2)C1=N[N+](=O)[O-]', '0 (no)'),
  ('COc1ccc(C(=CC(=O)N2CCOCC2)c2ccc(Cl)cc2)cc1OC', '0 (no)'),
  ('CC1(C(=O)Nc2ccc(O)c(Cl)c2Cl)CCCCC1', '0 (no)'),
  ('Nc1c(Cl)cc([N+](=O)[O-])cc1Cl', '0 (no)'),
  ('C#CC(C)(C)NC(=O)c1cc(Cl)cc(Cl)c1', '0 (no)'),
  ('FC(F)C(F)(F)OCC(Cn1cncn1)c1ccc(Cl)cc1Cl (stereo not given)', '0 (no)'),
  ('COc1cc(OC)nc(Sc2cccc(Cl)c2C(=O)O)n1', '0 (no)'),
  ('CNC(=O)Oc1cccc2c1OC(C)(C)O2', '0 (no)'),
  ('CCOP(=O)(OCC)Oc1cc(C)nc(C(C)C)n1', '0 (no)'),
  ('CC(=NC#N)N(C)Cc1ccc(Cl)nc1', '0 (no)'),
  ('COP(=O)(OC)SCn1c(=O)oc2cc(Cl)cnc21', '1 (yes)'),
  ('CCCCOC(=O)[C@@H](C)Oc1ccc(Oc2ccc(C#N)cc2F)cc1', '0 (no)'),
  ('CCc1cccc(C)c1N(C(=O)CCl)C(C)COC (stereo not given)', '0 (no)');

----------
# Tgt: human Protein Tyrosine Phosphatase Receptor Type M (PTPRM), PTPRM (gene 5797) (UniProt P28827)
# Sequence (P28827 whole entry, looked up): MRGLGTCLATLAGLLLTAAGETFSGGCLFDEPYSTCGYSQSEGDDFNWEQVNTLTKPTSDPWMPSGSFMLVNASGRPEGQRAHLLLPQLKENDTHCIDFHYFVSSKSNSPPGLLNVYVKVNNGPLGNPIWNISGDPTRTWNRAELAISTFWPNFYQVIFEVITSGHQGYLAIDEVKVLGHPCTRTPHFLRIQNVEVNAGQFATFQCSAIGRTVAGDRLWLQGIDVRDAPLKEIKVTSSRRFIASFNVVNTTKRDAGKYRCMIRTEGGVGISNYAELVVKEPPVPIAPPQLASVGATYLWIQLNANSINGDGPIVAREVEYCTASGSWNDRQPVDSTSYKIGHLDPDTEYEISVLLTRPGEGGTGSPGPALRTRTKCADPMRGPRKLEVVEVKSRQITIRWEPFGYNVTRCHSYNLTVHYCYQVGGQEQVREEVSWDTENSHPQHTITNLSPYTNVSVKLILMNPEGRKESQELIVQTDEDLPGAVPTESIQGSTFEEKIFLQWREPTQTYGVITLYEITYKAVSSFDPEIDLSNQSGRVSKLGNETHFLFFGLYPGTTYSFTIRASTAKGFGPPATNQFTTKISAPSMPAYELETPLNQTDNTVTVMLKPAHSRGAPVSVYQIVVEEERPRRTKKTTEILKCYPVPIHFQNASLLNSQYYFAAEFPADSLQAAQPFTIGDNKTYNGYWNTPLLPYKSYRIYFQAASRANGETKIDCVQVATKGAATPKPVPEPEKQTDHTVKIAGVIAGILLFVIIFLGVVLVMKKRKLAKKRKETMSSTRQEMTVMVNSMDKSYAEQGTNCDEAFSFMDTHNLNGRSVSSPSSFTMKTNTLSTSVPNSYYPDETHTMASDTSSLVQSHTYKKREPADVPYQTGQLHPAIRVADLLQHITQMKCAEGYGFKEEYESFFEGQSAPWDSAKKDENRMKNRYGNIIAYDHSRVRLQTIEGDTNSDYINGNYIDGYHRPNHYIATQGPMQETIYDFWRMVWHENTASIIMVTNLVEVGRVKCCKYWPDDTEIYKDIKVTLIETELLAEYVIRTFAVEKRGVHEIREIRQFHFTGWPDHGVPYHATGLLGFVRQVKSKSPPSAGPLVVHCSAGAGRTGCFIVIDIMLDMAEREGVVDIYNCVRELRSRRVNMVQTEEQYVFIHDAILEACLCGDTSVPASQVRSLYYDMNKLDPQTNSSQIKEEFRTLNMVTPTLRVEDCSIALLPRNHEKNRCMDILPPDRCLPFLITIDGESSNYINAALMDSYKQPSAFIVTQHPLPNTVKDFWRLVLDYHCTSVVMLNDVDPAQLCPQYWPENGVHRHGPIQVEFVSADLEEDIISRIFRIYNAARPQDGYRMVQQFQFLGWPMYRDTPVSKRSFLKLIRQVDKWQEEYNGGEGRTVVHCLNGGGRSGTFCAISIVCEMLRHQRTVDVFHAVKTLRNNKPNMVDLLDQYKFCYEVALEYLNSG
# Protocol Summary: NVS_ENZ_hPTPRM: NovaScreen (NVS) Enzymatic Assay for human Protein Tyrosine Phosphatase Receptor Type M (PTPRM) (AID 2283215)
Records with an inconclusive call do not appear. Calls of active or inactive are those of the source. The calls were made as follows: active = hit-call score of the fitted dose curve at least 0.9, where 1 is the maximum; inconclusive = response in the unintended direction; inactive = score below 0.9.
Labels: label 1 for active, label 0 for inactive

INSERT INTO assay_data (smiles, group_label) VALUES
  ('O=[N+]([O-])c1cc(C(F)(F)F)c(Cl)c([N+](=O)[O-])c1Nc1ncc(C(F)(F)F)cc1Cl', 'label 0'),
  ('CC1(C(=O)Nc2ccc(O)c(Cl)c2Cl)CCCCC1', 'label 0'),
  ('CC[C@H](C)[C@H]1O[C@]2(C=C[C@@H]1C)C[C@@H]1C[C@@H](C/C=C(\C)[C@@H](O[C@H]3C[C@H](OC)[C@@H](O[C@H]4C[C@H](OC)[C@@H](NC)[C@H](C)O4)[C@H](C)O3)[C@@H](C)/C=C/C=C3\CO[C@@H]4[C@H](O)C(C)=C[C@@H](C(=O)O1)[C@]34O)O2', 'label 1'),
  ('Nc1c(Cl)cc([N+](=O)[O-])cc1Cl', 'label 0');

----------
# Read-out: Fatty Acid-Binding Protein 1 (FABP1), FABP1 (gene 2168)
# Protocol Summary: LTEA_HepaRG_FABP1: Life Technologies and Expression Analysis (LTEA) Assay for Fatty Acid-Binding Protein 1 (FABP1) using HepaRG (AID 2283494)
# Assay Setup: mRNA level, 48 h; actives raise or lower the signal
Active and inactive are the calls of the source. Rule for the calls: active = hit-call score of the fitted dose curve at least 0.9, where 1 is the maximum; inactive = score below 0.9.
Labels: active, inactive

INSERT INTO results (compound, group_label) VALUES
  ('C[Si](Cn1cncn1)(c1ccc(F)cc1)c1ccc(F)cc1', 'active'),
  ('Cc1ccn2nc(S(=O)(=O)Nc3c(F)cccc3F)nc2n1', 'inactive'),
  ('CCC(=NOC/C=C/Cl)C1=C(O)CC(C2CCOCC2)CC1=O (configuration not stated)', 'inactive'),
  ('CC(C)=CC1C(C(=O)OCN2C(=O)C3=C(CCCC3)C2=O)C1(C)C (configuration not stated)', 'inactive'),
  ('CCOP(=O)(OCC)Oc1cc(C)nc(C(C)C)n1', 'inactive'),
  ('CNC(=O)Oc1cccc2c1OC(C)(C)O2', 'inactive'),
  ('Nc1c(Cl)cc([N+](=O)[O-])cc1Cl', 'active'),
  ('CN(C)NC(=O)CCC(=O)O', 'inactive'),
  ('CC(Oc1cccc(Cl)c1)C(=O)O (configuration not stated)', 'inactive'),
  ('CSC1=N[C@@](C)(c2ccccc2)C(=O)N1Nc1ccccc1', 'active'),
  ('CCOP(=O)(SC(C)CC)N1CCSC1=O (configuration not stated)', 'active'),
  ('COP(=O)(OC)OC(Br)C(Cl)(Cl)Br (configuration not stated)', 'inactive'),
  ('COP(=O)(NC(C)=O)SC (configuration not stated)', 'inactive'),
  ('CCC(=O)Nc1ccc(Cl)c(Cl)c1', 'active'),
  ('O=c1ccc(=O)[nH][nH]1', 'inactive'),
  ('CCOP(=O)(NC(C)C)Oc1ccc(SC)c(C)c1 (configuration not stated)', 'active'),
  ('CCCOCC(=Nc1ccc(Cl)cc1C(F)(F)F)n1ccnc1', 'active'),
  ('C=C(C)[C@H]1Cc2c(ccc3c2O[C@@H]2COc4cc(OC)c(OC)cc4[C@@H]2C3=O)O1', 'active'),
  ('CN1COCN(Cc2cnc(Cl)s2)C1=N[N+](=O)[O-]', 'inactive'),
  ('COP(=O)(OC)SCn1c(=O)oc2cc(Cl)cnc21', 'inactive'),
  ('CCNc1nc(Cl)nc(NC(C)(C)C#N)n1', 'inactive'),
  ('CCc1cccc(CC)c1N(COC)C(=O)CCl', 'inactive'),
  ('CCCSP(=O)(OCC)SCCC', 'active'),
  ('CC(=NC#N)N(C)Cc1ccc(Cl)nc1', 'inactive'),
  ('CC(COc1ccc(Oc2ccccc2)cc1)Oc1ccccn1 (configuration not stated)', 'inactive'),
  ('CCC(CC)Nc1c([N+](=O)[O-])cc(C)c(C)c1[N+](=O)[O-]', 'active'),
  ('C#CC(C)(C)NC(=O)c1cc(Cl)cc(Cl)c1', 'inactive');
